Target or system Topoisomerase I (Homo sapiens): recorded pIC50 listed per item.
Notebook: values listed as pIC50 are -log10 of the concentration (mol/L).

Some compounds with recorded pIC50:
CC[C@@]1(O)C(=O)OCc2c1cc1n(c2=O)C(OCCO)c2cc3ccccc3nc2-1 (mixture of isomers) [5(RS)-CPT, reference compound] : 4.90
CC[C@@]1(O)C(=O)OCc2c1cc1n(c2=O)[C@H](OCCO)c2cc3ccccc3nc2-1 [5(R)-CPT, reference compound] : 4.66

Would you kindly look at the next entry?
Problem: Query for Topoisomerase I (Homo sapiens): what pIC50 does the record show for CC[C@@]1(O)C(=O)OCc2c1cc1n(c2=O)[C@@H](OCCO)c2cc3ccccc3nc2-1 [5(S)-CPT] ?
Solution: 5.97
